Assay: chemical genetic growth profiling, strain panel (AID 1159580);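 also: tested at 20 µM; growth read once vehicle control cultures reached saturation at 30 °C; 1 = growth at the plate median or of vehicle wells; lower values mean less growth of the strain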
Conditions: S. cerevisiae deletion strains, growth OD, locus YOL006C, strain TOP1, active compounds read low
About 2,000 (36%) of roughly 5,500 compounds were called active. About 18% were inconclusive and are not listed. Some of the results follow.
Mark each entry criterion met if its normalized growth sits below 1, and criterion not met for all others.

Check out these entries, answers already filled in.
MOLECULE	ASSIGNED_CATEGORY
CC(=O)O[C@@H]1CC2C(C)(C)C(=O)C=C[C@]2(C)C2CC[C@]3(C)C(=CC(=O)O[C@H]3c3ccoc3)[C@@]21C (some centres not stated)	criterion met
CCCN(CCC)S(=O)(=O)c1ccc(C(=O)O)cc1	criterion not met
CC[N+](C)(C)c1cccc(O)c1	criterion met
CC1(C)CC2C1CC[C@]1(CBr)CCC3C(CC(=O)O)C(=O)O[C@@]32C1 (some centres not stated)	criterion not met
CO[C@H]1CC(O[C@@H]2/C(C)=C/C[C@@H]3C[C@@H](C[C@]4(CC[C@H](C)[C@@H](C5CCCCC5)O4)O3)OC(=O)[C@@H]3C=C(C)/C(=N\O)[C@H]4OC/C(=C\C=C\[C@@H]2C)[C@]43O)O[C@@H](C)C1O (some centres not stated)	criterion met
O=S(=O)(Oc1ccc(OCc2ccccc2)cc1)c1cc(Cl)cc(Cl)c1	criterion met

Continue with the molecule presented below.
Enquiry: Given CNNC , is recorded normalized growth strictly lower than 1?
Return: criterion not met

====

Assay: chemical genetic growth profiling, strain panel (AID 1159580)
Conditions: S. cerevisiae deletion strains, growth OD, locus YNL224C, strain SQS1, active compounds read low
Hit rate of the full screen: of about 5,500 compounds, about 2,000 (36%) were called active. Inconclusive results (about 18%) are left out. This is one part of the list.
Listing of entries alongside the reported normalized growth.
Simply state the number, no unit and no words.

MOLECULE	MEASUREMENT
NC(=O)c1ncn(C2OC(CO)C(O)C2O)c1O (centres undefined)	1
CC[N+](C)(C)c1cccc(O)c1	1.02
CC(=O)N[C@@H](Cc1c[nH]c2ccccc12)C(=O)OCc1cc(C(F)(F)F)cc(C(F)(F)F)c1	0.994

Enquiry: Looking for the measured normalized growth of NC(=O)c1ccccc1 , can you help?
Return: 0.997

====

Test: chemical genetic growth profiling, strain panel (AID 1159580)
Settings: S. cerevisiae deletion strains, growth OD, locus YNL128W, strain TEP1, active compounds read low
Out of some 5,500 compounds screened, about 2,000 (36%) were called active. About 18% were inconclusive and are not listed. The list shows a part of the results.
QUANTITY_MEASURED: normalized growth

Consider the worked cases shown below.
COMPOUND	normalized growth
CCCSc1ccc2nc(NC(=O)OC)[nH]c2c1	0.989 (inactive)
CC(=O)N[C@@H](Cc1c[nH]c2ccccc12)C(N)=O	0.94 (inactive)
C=C(C)C1(O)OC(=O)C=C1OC (stereo not drawn)	0.997 (inactive)
CC(C)=CCCC(C)C1CC[C@@]2(C)C3=C(CC[C@]12C)C1(C)CC[C@H](O)C(C)(C)C1CC3 (stereo partly drawn)	0.98 (inactive)

Enquiry: Looking for the measured normalized growth of OC[C@H]1O[C@@](CO)(O[C@@H]2O[C@H](CO)[C@@H](O)[C@H](O)[C@H]2O)[C@@H](O[C@@H]2O[C@H](CO)[C@@H](O)[C@H](O)[C@H]2O)[C@@H]1O , can you help?
Return: 1.03 (inactive)

Enquiry: Can you check Nc1ncn(C2OC(CO)C(O)C2O)c(=O)n1 (stereo not drawn) next?
Return: 0.994 (inactive)

Enquiry: Can you check NCCCNCCCCNCCCN next?
Return: 0.962 (inactive)

====

Listing of entries alongside the reported normalized growth.
Assay: chemical genetic growth profiling, strain panel (AID 1159580)
Settings: S. cerevisiae deletion strains, growth OD, locus YOR144C, strain elg1, active compounds read low
The campaign covered roughly 5,500 compounds. About 2,000 (36%) were called active. Not shown: some 18% with an inconclusive outcome. Some of the results follow.
Simply state the number, no unit and no words.

Consider the worked cases shown below.
COMPOUND	normalized growth
CC(C)CCCC(C)C1CCC2C3C[C@@H](O)[C@@]4(O)C[C@@H](O)CC[C@]4(C)C3CC[C@]12C (stereo partly drawn)	1.02
CC(=O)O[C@@H]1CC[C@@]2(C)C(C[C@@H](OC(C)=O)[C@@]3(C)C4=CC(=O)O[C@@H](c5ccoc5)[C@]4(C)CCC23)C1(C)C (stereo partly drawn)	1.01
CC(=O)O[C@H]1CC[C@@]2(C)C(C[C@@H](OC(C)=O)[C@@]3(C)C4=CC(=O)O[C@@H](c5ccoc5)[C@]4(C)CCC23)C1(C)C (stereo partly drawn)	0.995

Enquiry: Looking for the measured normalized growth of NC(=O)NC(=O)Cc1ccccc1 , can you help?
Return: 0.994

Enquiry: Can you check CC(C)CCCC(C)[C@H]1CCC2C3CC[C@@H]4C[C@H](O)CC[C@]4(C)C3CC[C@@]21C (stereo partly drawn) next?
Return: 0.987

====

Experiment: chemical genetic growth profiling, strain panel (AID 1159580);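 also: tested at 20 µM; growth read once vehicle control cultures reached saturation at 30 °C; 1 = growth at the plate median or of vehicle wells; lower values mean less growth of the strain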
Settings: S. cerevisiae deletion strains, growth OD, locus YGL227W, strain vid30, active compounds read low
Among all 5,500 compounds or so, about 2,000 (36%) were called active. Roughly 18% stayed inconclusive and do not appear here. Some of the results follow.
Listing of entries alongside the reported normalized growth.
Simply state the number, no unit and no words.

Consider the worked cases shown below.
COMPOUND	MEASUREMENT
CC(=O)c1cc(CC=C(C)C)c(O)c(CC=C(C)C)c1	1.01
CO[C@H]1CC(O[C@@H]2/C(C)=C/C[C@@H]3C[C@@H](C[C@]4(CC[C@H](C)[C@@H](C5CCCCC5)O4)O3)OC(=O)[C@@H]3C=C(C)/C(=N\O)[C@H]4OC/C(=C\C=C\[C@@H]2C)[C@]43O)O[C@@H](C)C1O (stereo partly specified)	1.03
CC(=O)Oc1ccc(C(c2ccc(OC(C)=O)cc2)c2ccccn2)cc1	1.01
CC(=O)O[C@H]1CCC2(C)C3=C(CCC2C1(C)C)[C@@]1(C)CC[C@@H](C(C)CCC=C(C)C)[C@]1(C)CC3 (stereo partly specified)	1.03
Cc1cn[nH]c1	1.01

// next entry
Enquiry: Looking for the measured normalized growth of CC(C)C[C@@H](CN)CC(=O)O , can you help?
Return: 1.01

====

Listing of entries alongside the reported normalized growth.
Assay: chemical genetic growth profiling, strain panel (AID 1159580);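 also: tested at 20 µM; growth read once vehicle control cultures reached saturation at 30 °C; 1 = growth at the plate median or of vehicle wells; lower values mean less growth of the strain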
Conditions: S. cerevisiae deletion strains, growth OD, locus YLR330W, strain CHS5, active compounds read low
In all, about 5,500 compounds went through this assay and about 2,000 (36%) were called active. Another 18% or so got no clear call; they are omitted. Some of the results follow.
Simply state the number, no unit and no words.

COMPOUND	MEASUREMENT
CC(=O)OC1CCC2(C)C(CC(OC(C)=O)C3(C)C4=CC(=O)OC(c5ccoc5)C4(C)CCC23)C1(C)C (stereo not given)	0.995

Enquiry: Looking for the measured normalized growth of NCCCCCCNS(=O)(=O)c1cccc2c(Cl)cccc12 , can you help?
Return: 0.997

Enquiry: Can you check OC[C@H]1O[C@@H](O[C@H]2[C@H](O)[C@@H](O)[C@@H](O)O[C@@H]2CO)[C@H](O)[C@@H](O)[C@@H]1O next?
Return: 1.02

Enquiry: Can you check Oc1c(Cl)cc(Cl)cc1Sc1cc(Cl)cc(Cl)c1O next?
Return: 0.995

Enquiry: Can you check C/C1=C/CC(C)(C)/C=C/C/C(C)=C/CC1 next?
Return: 0.974

====

Experiment: chemical genetic growth profiling, strain panel (AID 1159580);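 also: tested at 20 µM; growth read once vehicle control cultures reached saturation at 30 °C; 1 = growth at the plate median or of vehicle wells; lower values mean less growth of the strain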
Conditions: S. cerevisiae deletion strains, growth OD, locus YOR083W, strain WHI5, active compounds read low
Among all 5,500 compounds or so, about 2,000 (36%) were called active. About 18% were inconclusive and are not listed. The list shows a part of the results.
QUANTITY_MEASURED: normalized growth
Simply state the number, no unit and no words.

Consider the worked cases shown below.
COMPOUND	QUANTITY_MEASURED	MEASUREMENT
CNNC	normalized growth	1.01
O=P1(NCCCl)OCCCN1CCCl (stereo not drawn)	normalized growth	0.981
Cc1cc(=O)oc2cc(O)c(O)cc12	normalized growth	0.978
CC(=O)OCC(=O)[C@@]1(O)[C@H](C)CC2C3CCC4=CC(=O)C=C[C@]4(C)[C@@]3(F)[C@@H](O)C[C@@]21C (stereo partly drawn)	normalized growth	0.978
CC(C)C[C@@H](CN)CC(=O)O	normalized growth	0.974

Enquiry: Looking for the measured normalized growth of COc1ccccc1OCC(O)CO (stereo not drawn) , can you help?
Return: 1.02

Enquiry: Can you check N=C(N)N next?
Return: 1.01

Enquiry: Can you check C=C1C[C@]23C[C@@]1(O)CC[C@H]2[C@@]12C=C[C@H](O)[C@@](C)(C(=O)O1)[C@H]2[C@@H]3C(=O)O next?
Return: 0.997
